Each recorded value in this set is attributed to paper PMC5760745.

Target: T1, PyPABP1 (Plasmodium yoelii 17XNL, UniProt V7PUC0 1-841)
T1 sequence: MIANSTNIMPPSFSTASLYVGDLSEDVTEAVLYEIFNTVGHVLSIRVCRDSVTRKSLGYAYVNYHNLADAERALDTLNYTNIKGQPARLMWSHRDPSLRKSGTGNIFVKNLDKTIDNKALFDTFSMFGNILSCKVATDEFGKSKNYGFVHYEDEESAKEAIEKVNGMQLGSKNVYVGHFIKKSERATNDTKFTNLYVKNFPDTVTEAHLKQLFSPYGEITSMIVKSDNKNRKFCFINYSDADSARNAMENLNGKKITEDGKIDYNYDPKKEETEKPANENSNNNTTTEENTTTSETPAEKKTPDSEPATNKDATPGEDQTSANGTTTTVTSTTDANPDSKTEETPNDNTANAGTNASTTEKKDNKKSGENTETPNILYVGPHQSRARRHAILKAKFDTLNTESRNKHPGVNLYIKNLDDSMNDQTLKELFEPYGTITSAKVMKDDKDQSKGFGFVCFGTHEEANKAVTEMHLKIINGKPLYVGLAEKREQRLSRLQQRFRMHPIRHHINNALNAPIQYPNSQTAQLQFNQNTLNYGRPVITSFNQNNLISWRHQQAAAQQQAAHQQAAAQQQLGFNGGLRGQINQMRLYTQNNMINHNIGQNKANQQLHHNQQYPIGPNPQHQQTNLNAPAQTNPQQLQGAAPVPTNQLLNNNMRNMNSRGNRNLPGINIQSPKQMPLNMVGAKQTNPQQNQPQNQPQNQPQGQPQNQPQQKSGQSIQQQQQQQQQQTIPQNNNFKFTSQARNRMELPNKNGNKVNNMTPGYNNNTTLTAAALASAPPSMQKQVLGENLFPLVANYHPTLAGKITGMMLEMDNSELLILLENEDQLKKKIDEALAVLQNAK
Assay: fluorescence polarization; apparent Kd; excess tRNA, 5 mM Mg2+; EMSA/FP: 10 mM Tris-Cl pH 7.5, 5 mM MgCl2, 55 mM KCl, 2 ug tRNA, 1 mM DTT, 0.5 U/ul SUPERase-In, 2.5% glycerol, RT 20 min; ITC: 10 mM HEPES pH 7.5, 100 mM KCl
Details: protein: recombinant; tags: N-terminal GST (thrombin-cleavable), C-terminal 6xHis (TEV-cleavable); single strand
MEASUREMENT NAME: Kd (nM)
# number only, unit nM dropped from output

Return reported Kd. Input binder: AAAAAAAAAAAAAAAAAAAAAAAAA (ssRNA) [fluorescein-poly(A) 25-mer]
8
